Each recorded value in this set is attributed to the supplement of paper PMC4862054.

- Test system: DU-4475
- test: normalised response (% of control), CellTiter-Glo; higher = more viable cells (100 = DMSO, 0 = benzethonium chloride kill control)
- condition_description: incubation time: 72 h
quantity: normalised response (%)
Give bare numbers, in %.

Here is how some compounds turned out for normalised response.
CC(=O)O[C@]1(C(C)=O)CC[C@H]2[C@@H]3C=C(C)C4=CC(=O)CC[C@]4(C)[C@H]3CC[C@@]21C [Megestrol acetate] (10 nM) | 96.6
COc1cccc2c1C(=O)c1c(O)c3c(c(O)c1C2=O)C[C@@](O)(C(=O)CO)C[C@@H]3O[C@H]1C[C@H](N)[C@H](O)[C@H](C)O1 [Doxorubicin] (1 nM) | 108
C[C@]1(c2nc3c(C(N)=O)cccc3[nH]2)CCCN1 [Veliparib] (1 nM) | 106

Entry under test: S=c1[nH]cnc2nc[nH]c12 [Mercaptopurine] (1000 nM) . Its normalised response was 79.7
